target: UniProtKB P04629; assay: Isolated TRK enzyme assay (HTRF KinEASE-TK), TRKA; type: biochemical; conditions: read-out: Trka enzyme (IC50)
Sequence (P04629 441-796): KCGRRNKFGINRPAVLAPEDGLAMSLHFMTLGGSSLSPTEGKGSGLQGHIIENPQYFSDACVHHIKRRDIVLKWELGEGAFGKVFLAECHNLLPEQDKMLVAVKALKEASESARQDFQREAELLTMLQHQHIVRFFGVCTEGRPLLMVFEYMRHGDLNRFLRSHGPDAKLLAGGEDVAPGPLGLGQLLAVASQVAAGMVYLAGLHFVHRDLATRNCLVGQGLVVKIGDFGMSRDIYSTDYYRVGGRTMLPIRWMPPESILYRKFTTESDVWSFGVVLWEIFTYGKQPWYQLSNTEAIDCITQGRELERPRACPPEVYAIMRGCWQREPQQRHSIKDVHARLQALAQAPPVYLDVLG
This listing pairs molecules with measured IC50.
Report as a plain number; the unit nM is understood.

INSERT INTO assay_data (molecule, targetdesc, quantityunit, recordedresult) VALUES
  ('CC(C)n1cc(C(=O)c2cncc(NC(=O)c3ccc(C(F)(F)F)cc3)c2)c2cncnc21 [Example 345]', 'UniProtKB P04629', 'nM', 362),
  ('Cc1nonc1C(=O)Nc1cncc(C(=O)c2cn(C(C)C)c3ncncc23)c1 [Example 381]', 'UniProtKB P04629', 'nM', 2780);

Now let's try a different one.
Memo: COCC(C)(C)n1cc(C(=O)c2cncc(NC(=O)Cc3ccc(F)cn3)c2)c2cnc(N)nc21 [Example 548] , reported IC50: 21.2
